Sourced from ChEMBL document CHEMBL1201862

System: MDA-MB-231
EXPERIMENTAL DETAILS: NCI tumour cell line growth inhibition, 48 h
Structures can show the parent of a compound that is named as a salt. Activity calls are given as the source filed them. No stated cut-off is given here; in the data, active = GI50 up to about 1.1 µM and inactive = higher.
Possible outcomes: TRUE (active), FALSE (inactive)

# COMPOUND, TARGET DESC, DISCRETE LABEL
rows = [
    ("OC1C2CCCCN2C[C@@H](O)[C@H]1O (some centres undefined)", "MDA-MB-231", "FALSE"),
    ("COC(=O)CCCC(=O)/C(=N\\Nc1ccc(Cl)cc1)Nc1c(Cl)cccc1Cl", "MDA-MB-231", "FALSE"),
    ("O=C1c2ccccc2-c2ccc(O)cc21", "MDA-MB-231", "FALSE"),
    ("Cc1cn(C2CC(O)C(COC(=O)NCCC(F)(F)C(F)(F)C(F)(F)C(F)(F)F)O2)c(=O)[nH]c1=O (centres undefined)", "MDA-MB-231", "FALSE"),
    ("Cc1c(-c2nc(N)c(C#N)c(N)c2C#N)c(=O)oc2ccccc12", "MDA-MB-231", "FALSE"),
    ("CCOC(=O)C1=C(C)C(C(=O)OC)/C(=C/c2cccc3cccnc23)C1=O (centres undefined)", "MDA-MB-231", "FALSE"),
    ("c1ccc(-c2cnc3nc4ccccc4nc3n2)cc1", "MDA-MB-231", "FALSE"),
    ("CCOc1cc2c(cc1O)/C(=N\\N)C[C@@H]1[C@@H]2CC[C@]2(C)[C@@H](O)CC[C@@H]12", "MDA-MB-231", "FALSE"),
    ("C=C1C(OC)=C(OC)C(=O)c2[nH]c3c(OC)cc([N+](=O)[O-])cc3c21", "MDA-MB-231", "FALSE"),
    ("COc1ccc(NC(C)=O)cc1N1C(=O)/C(=C\\c2cccc(Oc3ccccc3)c2)SC1c1ccccc1 (centres undefined)", "MDA-MB-231", "FALSE"),
    ("COc1ccc(/C=N/NC(=O)c2ccccc2Nc2ccccc2C(=O)N/N=C/c2ccc(OC)cc2)cc1", "MDA-MB-231", "FALSE"),
    ("Nc1ncnc2c1nnn2C1C=CC(CP(=O)(O)O)C1 (centres undefined)", "MDA-MB-231", "FALSE"),
    ("CCOC(=O)[C@]1(OC(C)=O)C[C@H](OC(C)=O)[C@@H](C(F)COP(=O)(OCc2ccccc2)OCc2ccccc2)O1 (some centres undefined)", "MDA-MB-231", "FALSE"),
    ("COC(=O)CP1(=O)OC2C(C3CCC2(C)C3(C)C)N1c1cc(C(F)(F)F)cc(C(F)(F)F)c1 (centres undefined)", "MDA-MB-231", "FALSE"),
    ("CC[C@@]1(O)C[C@H](OC2CC(N(C)C)C(O)C(C)O2)c2c(O)c3c(c(O)c2[C@H]1OC1CC(N(C)C)C(O)C(C)O1)C(=O)c1cccc(O)c1C3=O (some centres undefined)", "MDA-MB-231", "TRUE"),
    ("COc1ccc(C(=O)N2CCc3c([nH]c4ccccc34)C2C(=O)O)o1 (centres undefined)", "MDA-MB-231", "FALSE"),
    ("NCCCCN [PUTRESCINE HYDROCHLORIDE]", "MDA-MB-231", "FALSE"),
    ("CSc1[nH]nc(N)c1C(=O)Nc1ccccc1", "MDA-MB-231", "FALSE"),
    ("COC(=O)C1=C(C(=O)OC)SC(=C2SCSC3=C2SC(C(=O)OC)=C(C(=O)OC)C32SC3=C(CCCC3)S2)S1", "MDA-MB-231", "FALSE"),
]
